Test system: NCI-H441
Assay: relative viability (nuclei count vs DMSO), 5 days (fraction); higher = more cells survive
Settings: first compound 4 µM
Measured Metric: relative viability
Answer with a number only.

Query: Output measured relative viability for this item: C[C@@H]1CN(CC(=O)Nc2ccc3c(c2)Cc2cccc(-c4cc(=O)cc(N5CCOCC5)o4)c2S3)C[C@H](C)O1 + C[C@@H](Oc1cc(-c2cnn(C3CCNCC3)c2)cnc1N)c1c(Cl)ccc(F)c1Cl [Crizotinib] (partner 1 µM)
Reply: 0.587

Query: For the compound Clc1ccc(Nc2nnc(Cc3ccncc3)c3ccccc23)cc1 [Vatalanib] + CC(C)C[C@H](NC(=O)[C@H](Cc1ccccc1)NC(=O)c1cnccn1)B(O)O [Bortezomib] (partner 0.002 µM) , give its measured relative viability value.
Reply: 0.448

Query: Write down relative viability measured for item C[C@@H]1CN(CC(=O)Nc2ccc3c(c2)Cc2cccc(-c4cc(=O)cc(N5CCOCC5)o4)c2S3)C[C@H](C)O1 + COc1cc2c(Oc3ccc(NC(=O)C4(C(=O)Nc5ccc(F)cc5)CC4)cc3F)ccnc2cc1OCCCN1CCOCC1 [Foretinib] (partner 0.25 µM)
Reply: 0.934

Query: Read the entry COc1cc(N2CCC(C(N)=O)CC2)ccc1Nc1nc(N)c(Cl)c(Nc2ccccc2S(=O)(=O)C(C)C)n1 [HG-5-88-01] + Cc1cc(Nc2cc(N3CCN(C)CC3)nc(Sc3ccc(NC(=O)C4CC4)cc3)n2)n[nH]1 [Tozasertib] (partner 0.1 µM) and write its reported relative viability.
Reply: 0.332

Query: Identify measured relative viability associated with COc1cc(N2CCC(C(N)=O)CC2)ccc1Nc1nc(N)c(Cl)c(Nc2ccccc2S(=O)(=O)C(C)C)n1 [HG-5-88-01] + COc1cc2c(Oc3ccc(NC(=O)C4(C(=O)Nc5ccc(F)cc5)CC4)cc3F)ccnc2cc1OCCCN1CCOCC1 [Foretinib] (partner 0.25 µM)
Reply: 0.839

Query: Please look at this compound and report its relative viability: Clc1ccc(Nc2nnc(Cc3ccncc3)c3ccccc23)cc1 [Vatalanib] + NC(=O)Nc1cc(-c2cccc(F)c2)sc1C(=O)N[C@H]1CCCNC1 [AZD7762] (partner 0.2 µM)
Reply: 0.892

Query: Identify measured relative viability associated with C[C@@H]1CN(CC(=O)Nc2ccc3c(c2)Cc2cccc(-c4cc(=O)cc(N5CCOCC5)o4)c2S3)C[C@H](C)O1 + Cc1nc(NC(=O)N2CCC[C@H]2C(N)=O)sc1-c1ccnc(C(C)(C)C(F)(F)F)c1 [Alpelisib] (partner 2 µM)
Reply: 0.584

Query: Identify the reported relative viability for the following entry. C[C@@H]1CN(CC(=O)Nc2ccc3c(c2)Cc2cccc(-c4cc(=O)cc(N5CCOCC5)o4)c2S3)C[C@H](C)O1 + COc1cccc2cc(-c3nc([C@H]4CC[C@H](C(=O)O)CC4)n4ncnc(N)c34)[nH]c12 [OSI-027] (partner 0.5 µM)
Reply: 0.438

Query: Read the entry Clc1ccc(Nc2nnc(Cc3ccncc3)c3ccccc23)cc1 [Vatalanib] + CC(=O)Nc1cccc(-n2c(=O)n(C3CC3)c(=O)c3c(Nc4ccc(I)cc4F)n(C)c(=O)c(C)c32)c1 [Trametinib] (partner 0.02 µM) and write its reported relative viability.
Reply: 0.421

Query: Supply recorded relative viability for COc1cc(N2CCC(C(N)=O)CC2)ccc1Nc1nc(N)c(Cl)c(Nc2ccccc2S(=O)(=O)C(C)C)n1 [HG-5-88-01] + NC(=O)Nc1cc(-c2cccc(F)c2)sc1C(=O)N[C@H]1CCCNC1 [AZD7762] (partner 0.2 µM) here.
Reply: 0.998

Query: Provide measured relative viability value, entry: C[C@@H]1CN(CC(=O)Nc2ccc3c(c2)Cc2cccc(-c4cc(=O)cc(N5CCOCC5)o4)c2S3)C[C@H](C)O1 + NC(=O)Nc1cc(-c2cccc(F)c2)sc1C(=O)N[C@H]1CCCNC1 [AZD7762] (partner 0.2 µM)
Reply: 1.01

Query: Please give measured relative viability of the following entry: C[C@@H]1CN(CC(=O)Nc2ccc3c(c2)Cc2cccc(-c4cc(=O)cc(N5CCOCC5)o4)c2S3)C[C@H](C)O1 + Nc1nc2[nH]cc(CCc3ccc(C(=O)N[C@@H](CCC(=O)O)C(=O)O)cc3)c2c(=O)[nH]1 [Pemetrexed] (partner 0.2 µM)
Reply: 0.217

Query: Identify the reported relative viability for the following entry. Clc1ccc(Nc2nnc(Cc3ccncc3)c3ccccc23)cc1 [Vatalanib] + Cc1nc(Nc2ncc(C(=O)Nc3c(C)cccc3Cl)s2)cc(N2CCN(CCO)CC2)n1 [Dasatinib] (partner 0.075 µM)
Reply: 0.551

Query: Read the entry Clc1ccc(Nc2nnc(Cc3ccncc3)c3ccccc23)cc1 [Vatalanib] + N=C(N)NC(=N)NCCc1ccccc1 [Phenformin] (partner 250 µM) and write its reported relative viability.
Reply: 0.819

Query: Please report relative viability for the following compound: Clc1ccc(Nc2nnc(Cc3ccncc3)c3ccccc23)cc1 [Vatalanib] + CS(=O)(=O)N1CCN(Cc2cc3nc(-c4cccc5[nH]ncc45)nc(N4CCOCC4)c3s2)CC1 [Pictilisib] (partner 1 µM)
Reply: 0.501

Query: State, in one line, measured relative viability of C[C@@H]1CN(CC(=O)Nc2ccc3c(c2)Cc2cccc(-c4cc(=O)cc(N5CCOCC5)o4)c2S3)C[C@H](C)O1 + Cc1nc(Nc2ncc(C(=O)Nc3c(C)cccc3Cl)s2)cc(N2CCN(CCO)CC2)n1 [Dasatinib] (partner 0.075 µM)
Reply: 0.538

Query: Return the recorded relative viability value; entry: COc1cc(N2CCC(C(N)=O)CC2)ccc1Nc1nc(N)c(Cl)c(Nc2ccccc2S(=O)(=O)C(C)C)n1 [HG-5-88-01] + N=C(N)NC(=N)NCCc1ccccc1 [Phenformin] (partner 250 µM)
Reply: 0.294
